Exercise: state measured pIC50 for each of the compounds provided.
# Test Target: SCD5 (Homo sapiens, UniProt Q86SK9)
# Construct: host or cells: S. cerevisiae ole1Δ strain (W303 pdr1Δ pdr3Δ background), plasmid pRS316 with TDH3 promoter and CYC1 terminator
# Sequence (Q86SK9 1-330): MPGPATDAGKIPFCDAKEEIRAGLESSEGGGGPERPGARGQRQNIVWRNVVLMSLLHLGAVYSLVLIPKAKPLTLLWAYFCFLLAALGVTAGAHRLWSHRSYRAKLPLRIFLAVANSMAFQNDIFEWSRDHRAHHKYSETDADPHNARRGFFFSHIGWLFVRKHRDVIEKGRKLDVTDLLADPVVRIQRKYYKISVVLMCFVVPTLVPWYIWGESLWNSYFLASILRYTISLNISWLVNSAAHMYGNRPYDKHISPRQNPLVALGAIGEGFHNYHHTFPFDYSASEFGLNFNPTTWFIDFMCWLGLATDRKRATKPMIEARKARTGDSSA
# Protocol: Growth inhibition of humanized yeast strain expressing SCD5 as sole desaturase
# Type: cell-based
# Test Parameters: humanized yeast strain, 40 h
# Experimental: Strain oleΔ (yeast ole1 deletion mutant) was constructed by deleting OLE1 with NAT-MX6 in BY4741, amplifying the deletion cassette from the genomic DNA of the resulting strain with primers flanking the ORF by 1000 bp upstream and downstream, transforming the resulting deletion cassette into W303 pdr1Δ pdr3Δ, and plating transformants on YPD media containing G418 (200 μg/mL) and nourseothricin ([…]) with 0.01% TWEEN®-20 and 0.5 mM oleic and palmitoleic acids. […]
One number for each entry, as −log10 of the molar value.

Solved entries:
COC1(C(=O)N2CCC(c3nc(-c4ccc5cnn(C(C)C)c5c4)no3)CC2)CC1 | 6.88
O=C(N1CCC(c2noc(-c3ccc4cnn(C5CCOC5)c4c3)n2)CC1)C1(F)CCC1 (centres unmarked) | 8.00
CC(C)(C)OC(=O)N1CCC(c2noc(-c3cccc(C4CCOC4)n3)n2)CC1 (centres unmarked) | 5.11
CC(C)(C)OC(=O)N1CCC(c2noc(-c3cccc(N4CCOCC4)c3F)n2)CC1 | 7.80
CC(C)(C)OC(=O)N1CCC(c2nc(-c3ccc4cnn(C5(C)COC5)c4c3)no2)CC1 | 6.23

Go through the list and state pIC50 for each entry.
1. CC(C)(C)CCC(=O)N1CC(c2nc(-c3ccc4cnn(C5COC5)c4c3)no2)C1
2. CC(C)n1ncc2ccc(-c3nc(N4CCC5(CCO5)CC4)no3)cc21

4.68
5.28
